Reference source: ChEMBL document CHEMBL5131447

system_under_test: Orexin receptor type 2 (Homo sapiens, UniProt O43614)
Sequence (O43614 whole entry): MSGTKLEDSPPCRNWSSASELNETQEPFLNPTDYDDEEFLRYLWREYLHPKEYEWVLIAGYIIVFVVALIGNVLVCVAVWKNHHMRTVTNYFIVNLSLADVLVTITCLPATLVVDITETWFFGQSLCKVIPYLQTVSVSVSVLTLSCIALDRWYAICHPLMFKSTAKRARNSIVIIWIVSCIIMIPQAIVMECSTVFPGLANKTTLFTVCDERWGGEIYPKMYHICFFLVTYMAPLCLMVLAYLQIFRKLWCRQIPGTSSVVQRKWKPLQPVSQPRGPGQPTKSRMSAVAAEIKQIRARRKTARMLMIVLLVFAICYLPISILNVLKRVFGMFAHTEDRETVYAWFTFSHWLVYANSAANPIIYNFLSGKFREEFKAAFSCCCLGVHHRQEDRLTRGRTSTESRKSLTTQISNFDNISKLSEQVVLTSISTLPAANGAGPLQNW
protocol_description: Agonist activity at OX2R (unknown origin)
property_label: EC50 (nM)

molecule="COc1ccccc1CC(=O)N(C)C1CCCc2ccc(NS(=O)(=O)c3cc(-c4cccc(C(=O)N(C)C)c4)ccc3OC)cc21 (stereo not given)" reported_measurement=3.59
molecule="COc1cccc(CC(=O)N(CC2CC2)C2CCCc3ccc(NS(=O)(=O)c4cc(-c5cccc(C(=O)N(C)C)c5)ccc4OC)cc32)c1 (stereo not given)" reported_measurement=78.1

(1) COc1ccc(-c2cccc(C(=O)N(C)C)c2)cc1S(=O)(=O)Nc1ccc2c(c1)C(N(C)C(=O)Cc1cccnc1)CCC2 (stereo not given)
(2) CCN(C(=O)Cc1cccc(OC)c1)C1CCCc2ccc(NS(=O)(=O)c3cc(-c4cccc(C(=O)N(C)C)c4)ccc3OC)cc21 (stereo not given)
Prompt: Which record would sort first by descending EC50, 1 or 2 ? Return value: the label identifying the chosen record.
Completion: 1
(1: 151 nM, 2: 19.3 nM)

(A) COc1ccc(-c2cccc(C(=O)N(C)C)c2)cc1S(=O)(=O)Nc1ccc2c(c1)C(N(C)C(=O)Cc1cccc(N(C)C)c1)CCC2 (stereo not given)
(B) COc1cccc(CC(=O)N(C)C2CCCc3ccc(NS(=O)(=O)c4cc(-c5cccc(C(=O)N(C)C)c5)ccc4OC)cc32)c1 (racemic)
Prompt: Which record would sort first by descending EC50, A or B ? Return value: the label identifying the chosen record.
Completion: A
